biological target: CB1 receptor (Rattus norvegicus); assay: GTPγ-S binding assay, CB1; settings: class symbols; read-out: EC50 (GTP) CB1 receptor
pEC50: −log10 of the molar value.
testReadout: pEC50

Solved entries:
CCCCC/C=C\C/C=C\C/C=C\C/C=C\C1CC[C@@H](C(=O)OC(CO)CO)C1 (stereo partly shown) [Compound 5.2.2e]	< 6.00
CCCCC/C=C\C/C=C\C/C=C\[C@@H](C)/C=C\CCCC(=O)OC(CO)CO [Compound 5.4.3b]	< 6.00

Inquiry: Please report the recorded pEC50 for CCCCC/C=C\C/C=C\C/C=C\[C@H](C)/C=C\CCCC(=O)OC(CO)CO [Compound 5.4.3a] .
Reply text: < 6.00

Inquiry: Same again, this time with CCCCC/C=C\C/C=C\C/C=C\C/C=C\COC(C)C(=O)OC(CO)CO (stereo not shown) [Compound 5.3.3]
Reply text: < 6.00

###

target: UniProt:P34972; experiment: CB2 receptor binding affinity (Ki); set-up: CB2 receptor Ki; CB2 receptor Ki (PMSF); other: with PMSF; details: read-out: CB2 receptor Ki (PMSF); with PMSF
testReadout: Ki

Inquiry: Ki for CCCCC1(/C=C\C/C=C\C/C=C\C/C=C\CCCC(=O)N[C@H](C)CO)CCCC1 [Compound 4.4.3] ?
Reply text: > 1000 nM

###

biological target: CB1 receptor (rCB1) (Rattus norvegicus); assay: cAMP assay (inhibition of FSK stimulated cAMP), CB1; type: cell-based; settings: class symbols
Sequence (P20272 whole entry): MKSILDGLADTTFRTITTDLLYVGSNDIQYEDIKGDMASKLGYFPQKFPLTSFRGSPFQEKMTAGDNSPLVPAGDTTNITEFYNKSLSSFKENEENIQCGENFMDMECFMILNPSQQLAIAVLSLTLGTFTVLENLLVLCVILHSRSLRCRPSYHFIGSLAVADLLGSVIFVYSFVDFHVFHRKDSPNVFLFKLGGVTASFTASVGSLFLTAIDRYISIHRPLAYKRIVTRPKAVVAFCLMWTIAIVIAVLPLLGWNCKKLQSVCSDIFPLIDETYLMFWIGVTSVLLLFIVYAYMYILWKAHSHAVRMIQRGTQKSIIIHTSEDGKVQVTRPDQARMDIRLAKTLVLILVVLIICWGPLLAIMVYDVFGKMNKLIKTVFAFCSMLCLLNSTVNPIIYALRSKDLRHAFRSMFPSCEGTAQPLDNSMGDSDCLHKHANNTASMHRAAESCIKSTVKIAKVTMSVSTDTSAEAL
testReadout: EC50

C[C@H](/C=C\C/C=C\C/C=C\[C@H]1C[C@H]1C(=O)OC(CO)CO)/C=C\CCCCC(F)(F)F	0.01 to 10 nM
CCCCC/C=C\[C@H](C)/C=C\C/C=C\Cc1ccccc1CCCC(=O)OC(CO)CO	> 1000 nM
CCCCC/C=C\C/C=C\C/C=C\C/C=C\C1(CC(=O)OC(CO)CO)CCC1	200 to 1000 nM

Inquiry: # input compound: C[C@H](/C=C\C/C=C\C/C=C\C1CC1C(=O)OC(CO)CO)/C=C\CCCCCO[N+](=O)[O-] (stereo partly shown) ; wanted: its EC50
Reply text: 0.01 to 10 nM

Inquiry: // repeat for C[C@H](/C=C\C/C=C\C/C=C\[C@@H]1C[C@@H]1C(=O)OC(CO)CO)/C=C\CCCCC(F)(F)F and report
Reply text: 10 to 200 nM

Inquiry: Here is the next compound: CCCCC/C=C\C/C=C\C/C=C\C/C=C\C1CC(C(=O)OC(CO)CO)C1 (stereo not shown)
Reply text: > 1000 nM

Inquiry: Record: C[C@H](/C=C\C/C=C\C/C=C\C1CC1C(=O)OC(CO)CO)/C=C\CCCCC(F)(F)F (single isomer, unassigned) [Compound 5.11.4]
Reply text: 10 to 200 nM

###

biological target: CB1 receptor (Rattus norvegicus, UniProt P20272); experiment: CB1 receptor binding affinity (Ki); conditions: without PMSF; read-out: CB1 receptor affinity Ki
Sequence (P20272 whole entry): as above
pKi: −log10 of the molar value.
testReadout: pKi

C[C@H](/C=C\C/C=C\C/C=C\CCCC(=O)N[C@H](C)CO)/C=C\CCCCCF	8.00 to 11.00
CCCCC/C=C\[C@H](C)/C=C\C/C=C\C/C=C\CCCCNC(=O)COC	8.00 to 11.00
CCCCCc1ccccc1C/C=C\C/C=C\C/C=C\CCCC(=O)N[C@H](C)CO	6.70 to 8.00

Inquiry: Report pKi for CCCCC/C=C\C/C=C\C/C=C\Cc1ccccc1CCCC(=O)N[C@H](C)CO please.
Reply text: 8.00 to 11.00
